- ASSAY_SYSTEM: Poly [ADP-ribose] polymerase tankyrase-2 (Homo sapiens, UniProt Q9H2K2)
- Sequence (Q9H2K2 whole entry): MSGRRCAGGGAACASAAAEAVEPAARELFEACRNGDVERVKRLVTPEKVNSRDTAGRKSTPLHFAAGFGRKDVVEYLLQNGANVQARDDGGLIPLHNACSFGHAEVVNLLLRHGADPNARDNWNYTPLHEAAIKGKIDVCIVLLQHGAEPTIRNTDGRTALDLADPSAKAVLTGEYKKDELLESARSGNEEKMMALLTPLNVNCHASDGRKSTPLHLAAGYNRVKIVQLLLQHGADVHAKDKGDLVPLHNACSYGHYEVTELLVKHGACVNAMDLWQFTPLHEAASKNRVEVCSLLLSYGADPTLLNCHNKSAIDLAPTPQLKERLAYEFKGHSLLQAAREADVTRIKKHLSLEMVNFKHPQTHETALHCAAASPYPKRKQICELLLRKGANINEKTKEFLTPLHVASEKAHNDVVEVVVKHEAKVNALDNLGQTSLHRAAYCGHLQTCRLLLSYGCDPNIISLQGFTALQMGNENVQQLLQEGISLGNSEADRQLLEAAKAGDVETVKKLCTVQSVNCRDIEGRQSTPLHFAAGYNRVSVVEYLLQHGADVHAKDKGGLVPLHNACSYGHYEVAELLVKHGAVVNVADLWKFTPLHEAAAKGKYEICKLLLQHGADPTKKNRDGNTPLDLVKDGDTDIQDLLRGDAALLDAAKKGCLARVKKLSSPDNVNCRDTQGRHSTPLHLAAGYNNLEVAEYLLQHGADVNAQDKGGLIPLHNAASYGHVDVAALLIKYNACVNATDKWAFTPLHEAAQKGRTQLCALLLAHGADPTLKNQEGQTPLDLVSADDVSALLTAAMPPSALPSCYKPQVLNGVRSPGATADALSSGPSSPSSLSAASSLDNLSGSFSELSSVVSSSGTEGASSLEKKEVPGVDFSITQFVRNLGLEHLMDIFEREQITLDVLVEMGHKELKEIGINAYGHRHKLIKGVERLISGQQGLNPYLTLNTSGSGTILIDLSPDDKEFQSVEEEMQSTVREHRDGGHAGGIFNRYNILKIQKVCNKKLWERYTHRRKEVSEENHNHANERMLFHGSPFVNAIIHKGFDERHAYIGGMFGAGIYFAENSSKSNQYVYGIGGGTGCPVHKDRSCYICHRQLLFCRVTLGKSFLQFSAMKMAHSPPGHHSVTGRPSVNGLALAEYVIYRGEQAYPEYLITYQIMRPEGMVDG
- ASSAY_OVERVIEW: Binding affinity to recombinant human N-terminal His-tagged TNKS2 (Ser959 to Gly1166 residues) expressed in Escherichia coli by surface plasmon resonance analysis
- CONDITION_PARAMETERS: read-out: Kd
READOUT_KIND: pKd
Scale: pKd equals -log10([C]), with [C] in mol/L.

COc1cc(CCCOC(C)=O)cc(-c2cc(CCCOC(C)=O)cc(OC)c2O)c1O 8.19

Query :: Given the entry C=CCc1cc(O)c(O)c(-c2cc(CC=C)cc(OC)c2O)c1 , report its measured pKd.
Result :: 7.68

Query :: Given the entry COc1cc(CCCO)cc(-c2cc(CCCO)cc(OC)c2O)c1O , report its measured pKd.
Result :: 7.73

###

- ASSAY_SYSTEM: Poly [ADP-ribose] polymerase 1 (Homo sapiens, UniProt P09874)
- Sequence (P09874 whole entry): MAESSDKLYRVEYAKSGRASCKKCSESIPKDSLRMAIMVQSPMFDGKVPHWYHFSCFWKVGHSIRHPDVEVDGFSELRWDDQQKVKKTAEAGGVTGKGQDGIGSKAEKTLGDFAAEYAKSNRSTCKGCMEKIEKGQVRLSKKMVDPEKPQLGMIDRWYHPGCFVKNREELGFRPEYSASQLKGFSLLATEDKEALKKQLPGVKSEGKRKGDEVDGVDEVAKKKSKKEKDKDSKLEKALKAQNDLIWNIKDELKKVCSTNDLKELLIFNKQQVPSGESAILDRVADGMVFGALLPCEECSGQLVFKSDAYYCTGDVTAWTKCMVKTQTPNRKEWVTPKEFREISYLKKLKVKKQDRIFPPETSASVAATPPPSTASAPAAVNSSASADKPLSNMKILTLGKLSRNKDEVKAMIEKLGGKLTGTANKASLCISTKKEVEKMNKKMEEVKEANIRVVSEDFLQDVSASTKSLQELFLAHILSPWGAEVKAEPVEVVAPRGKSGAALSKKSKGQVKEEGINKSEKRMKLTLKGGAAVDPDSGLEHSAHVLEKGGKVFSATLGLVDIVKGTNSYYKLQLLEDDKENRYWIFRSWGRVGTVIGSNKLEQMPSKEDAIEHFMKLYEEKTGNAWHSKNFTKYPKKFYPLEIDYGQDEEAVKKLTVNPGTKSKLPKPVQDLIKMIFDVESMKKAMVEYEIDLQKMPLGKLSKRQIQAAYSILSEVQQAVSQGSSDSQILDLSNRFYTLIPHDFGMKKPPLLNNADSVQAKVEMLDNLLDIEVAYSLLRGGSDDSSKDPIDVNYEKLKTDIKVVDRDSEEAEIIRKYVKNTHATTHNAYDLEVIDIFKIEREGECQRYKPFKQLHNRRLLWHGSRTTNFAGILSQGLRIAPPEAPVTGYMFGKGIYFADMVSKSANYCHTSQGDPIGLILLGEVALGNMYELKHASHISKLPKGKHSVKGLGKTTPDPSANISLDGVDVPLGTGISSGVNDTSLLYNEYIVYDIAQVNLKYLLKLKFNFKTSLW
- ASSAY_OVERVIEW: Binding affinity to recombinant human PARP1 expressed in baculovirus infected Sf9 cells by surface plasmon resonance analysis
- CONDITION_PARAMETERS: read-out: Kd
READOUT_KIND: Kd

Query :: Given the entry C=CCc1ccc(O)c(-c2cc(CC=C)cc(O)c2O)c1 , report its measured Kd.
Result :: 1250 nM
